Molecular target: Caco-2 DPP-IV activity (Homo sapiens, UniProt P27487)
Construct: In situ method using confluent Caco-2 cells described by Caron et al. was slightly modified and used to study DPP-IV activity; host or cells: Caco-2 cells, live and confluent, 7 days after seeding
Sequence (P27487 whole entry): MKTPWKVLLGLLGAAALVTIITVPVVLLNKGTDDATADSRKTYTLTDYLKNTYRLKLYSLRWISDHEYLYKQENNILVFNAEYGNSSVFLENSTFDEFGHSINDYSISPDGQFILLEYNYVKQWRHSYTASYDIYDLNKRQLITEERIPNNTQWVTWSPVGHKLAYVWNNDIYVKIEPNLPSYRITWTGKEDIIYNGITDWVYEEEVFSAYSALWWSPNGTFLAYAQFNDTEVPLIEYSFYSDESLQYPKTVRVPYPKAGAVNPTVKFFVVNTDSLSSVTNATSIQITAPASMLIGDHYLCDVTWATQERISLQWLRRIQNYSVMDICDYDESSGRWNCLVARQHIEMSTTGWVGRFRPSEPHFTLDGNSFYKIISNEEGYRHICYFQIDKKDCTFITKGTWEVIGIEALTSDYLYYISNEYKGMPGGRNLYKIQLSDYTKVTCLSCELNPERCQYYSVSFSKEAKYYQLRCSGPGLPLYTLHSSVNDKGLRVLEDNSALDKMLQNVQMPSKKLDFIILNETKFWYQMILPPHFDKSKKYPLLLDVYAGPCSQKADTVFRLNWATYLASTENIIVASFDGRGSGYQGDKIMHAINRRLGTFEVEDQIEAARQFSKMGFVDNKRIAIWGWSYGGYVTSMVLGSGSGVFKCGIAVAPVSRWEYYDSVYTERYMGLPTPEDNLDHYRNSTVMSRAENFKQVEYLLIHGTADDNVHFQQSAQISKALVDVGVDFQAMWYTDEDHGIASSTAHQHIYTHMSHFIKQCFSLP
Assay: In situ DPP-IV activity inhibition using live confluent Caco-2 cells (Gly-Pro-AMC substrate)
Type: cell-based
Settings: synthetic peptides identified in basolateral side, read-out: In Situ IC50 (DPP-IV inhibitory activity)
Where no end group is shown, it is not given here.
quantity-name: IC50 (mM)

CSSGGY [CSSGGY]; 2.16
VAPEEHPT; 2.27
